Please respond with reported pKd for every item in the list.
Target: T1, hPRLR.mFc (soluble dimeric human PRLR) (Homo sapiens, UniProt P16471)
T1 construct: dimeric (hPRLR.mFc)
T1 sequence (P16471 with tags, fused parts or gaps): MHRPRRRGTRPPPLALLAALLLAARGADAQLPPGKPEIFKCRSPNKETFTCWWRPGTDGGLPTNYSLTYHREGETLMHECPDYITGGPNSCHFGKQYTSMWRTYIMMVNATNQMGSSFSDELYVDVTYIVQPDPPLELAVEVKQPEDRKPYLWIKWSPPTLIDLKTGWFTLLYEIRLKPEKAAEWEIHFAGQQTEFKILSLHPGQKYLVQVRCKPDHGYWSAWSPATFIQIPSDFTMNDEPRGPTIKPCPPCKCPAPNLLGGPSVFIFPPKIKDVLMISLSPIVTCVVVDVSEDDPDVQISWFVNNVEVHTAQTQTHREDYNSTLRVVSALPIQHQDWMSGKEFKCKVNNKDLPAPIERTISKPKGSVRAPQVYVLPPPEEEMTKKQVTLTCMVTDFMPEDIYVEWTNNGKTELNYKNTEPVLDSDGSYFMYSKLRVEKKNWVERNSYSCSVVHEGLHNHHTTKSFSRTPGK
Assay: Surface plasmon resonance (Biacore T200), mAb-capture format
Assay type: binding
Details: 37° C., antibody-capture format, analyte hPRLR.mFc
Protocol: Antibodies, expressed as human IgG1 Fc “[…]” designations), were captured onto an anti-human Fc sensor surface (mAb-capture format), and soluble monomeric (hPRLR.mmh; SEQ ID NO:401, or macaca fascicularis (mf) PRLR.mmh; SEQ ID NO:403) or dimeric (hPRLR.mFc; SEQ ID NO:402) PRLR protein was injected over the sensor surface. Measurements were conducted on a T200 Biacore instrument. […]
Numbers only, as −log10 of the molar value.

The following molecules each have a reported value; give each one's pKd.
1. H1H6801P: anti-PRLR antibody, human IgG1 Fc; HCVR/LCVR SEQ ID NOs 210/218 (antibody, V domains shown, human IgG1 Fc) VH: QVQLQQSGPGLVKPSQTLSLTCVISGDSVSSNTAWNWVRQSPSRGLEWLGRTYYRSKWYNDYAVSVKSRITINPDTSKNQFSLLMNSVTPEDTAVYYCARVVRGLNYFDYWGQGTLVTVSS VL: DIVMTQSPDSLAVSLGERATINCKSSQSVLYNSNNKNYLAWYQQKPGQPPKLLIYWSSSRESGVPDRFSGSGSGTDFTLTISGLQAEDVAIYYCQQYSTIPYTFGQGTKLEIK
2. H1H6966N: human IgG1 Fc form of H2M6966N; anti-PRLR; HCVR/LCVR SEQ ID NOs 338/346 (antibody, V domains shown, human IgG1 Fc) VH: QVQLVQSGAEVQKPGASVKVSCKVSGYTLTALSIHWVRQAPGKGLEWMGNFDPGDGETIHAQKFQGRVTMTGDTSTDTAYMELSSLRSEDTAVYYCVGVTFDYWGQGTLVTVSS VL: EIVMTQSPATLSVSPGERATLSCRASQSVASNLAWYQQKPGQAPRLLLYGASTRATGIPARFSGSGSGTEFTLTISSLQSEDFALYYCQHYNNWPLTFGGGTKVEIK

Response line:
1: 9.55; 2: 10.17
